Assay read-out Ki on Nitric oxide synthase 1 (Rattus norvegicus, UniProt P29476); records merged from the literature.
Sequence (P29476 whole entry): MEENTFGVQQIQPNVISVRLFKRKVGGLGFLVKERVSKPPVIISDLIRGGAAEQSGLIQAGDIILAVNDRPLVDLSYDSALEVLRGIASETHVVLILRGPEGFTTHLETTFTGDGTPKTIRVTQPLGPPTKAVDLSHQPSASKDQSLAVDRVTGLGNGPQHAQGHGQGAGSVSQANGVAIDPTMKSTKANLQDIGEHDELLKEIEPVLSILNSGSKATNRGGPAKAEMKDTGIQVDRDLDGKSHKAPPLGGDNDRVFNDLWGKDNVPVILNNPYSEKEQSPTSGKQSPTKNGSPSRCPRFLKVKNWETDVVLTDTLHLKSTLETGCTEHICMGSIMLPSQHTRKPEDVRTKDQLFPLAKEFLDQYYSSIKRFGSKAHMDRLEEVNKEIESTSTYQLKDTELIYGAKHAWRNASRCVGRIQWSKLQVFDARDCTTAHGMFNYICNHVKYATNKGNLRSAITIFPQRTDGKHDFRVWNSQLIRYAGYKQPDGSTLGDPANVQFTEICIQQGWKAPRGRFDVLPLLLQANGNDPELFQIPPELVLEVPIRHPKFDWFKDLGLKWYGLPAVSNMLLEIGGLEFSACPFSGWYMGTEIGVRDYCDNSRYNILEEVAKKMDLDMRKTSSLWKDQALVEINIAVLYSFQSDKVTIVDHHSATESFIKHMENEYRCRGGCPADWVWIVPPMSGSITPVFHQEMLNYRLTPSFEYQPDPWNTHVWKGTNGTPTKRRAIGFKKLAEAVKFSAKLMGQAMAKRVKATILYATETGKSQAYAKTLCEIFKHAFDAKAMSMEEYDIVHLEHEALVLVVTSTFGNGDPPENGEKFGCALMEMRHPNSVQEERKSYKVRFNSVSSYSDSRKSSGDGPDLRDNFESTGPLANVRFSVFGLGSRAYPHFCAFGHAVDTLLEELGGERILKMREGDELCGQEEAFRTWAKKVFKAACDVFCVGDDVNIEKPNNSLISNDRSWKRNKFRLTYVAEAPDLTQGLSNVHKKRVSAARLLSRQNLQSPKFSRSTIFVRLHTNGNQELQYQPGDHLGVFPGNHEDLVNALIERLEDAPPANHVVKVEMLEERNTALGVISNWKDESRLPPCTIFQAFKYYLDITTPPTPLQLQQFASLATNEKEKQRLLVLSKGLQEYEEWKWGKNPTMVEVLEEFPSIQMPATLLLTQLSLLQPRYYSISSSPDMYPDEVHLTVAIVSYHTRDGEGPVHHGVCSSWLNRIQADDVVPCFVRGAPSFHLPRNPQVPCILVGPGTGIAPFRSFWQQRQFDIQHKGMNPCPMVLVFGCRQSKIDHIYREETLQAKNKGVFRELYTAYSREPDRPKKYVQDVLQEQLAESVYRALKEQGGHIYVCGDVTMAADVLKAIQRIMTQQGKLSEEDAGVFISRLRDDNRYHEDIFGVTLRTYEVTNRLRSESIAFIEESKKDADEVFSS
Lab book: enter the figure in nM, no units written.

compound	Ki, nM
Nc1cccc(C[C@H]2CNC[C@H]2NC[C@@H](N)Cc2ccccc2)n1 (racemic)	2300
N=C(Nc1cccc(CCc2cccc(NC(=N)c3cccs3)c2)c1)c1cccs1	739
CNc1cccc(-c2cncc(CCc3cc(C)cc(N)n3)c2)c1	1700
Cc1cc(N)nc(CCc2cccc(CCCN(C)C)c2)c1	60
Cc1cc(N)nc(C[C@H]2CNC[C@H]2NCCOCCc2cccc(F)c2)c1 (racemic)	400

Form field Ki for item Cc1cc(N)nc(CCc2cccc(C(CN)Cc3cc(C)cc(N)n3)n2)c1 (racemic) on Nitric oxide synthase 1 (Rattus norvegicus, UniProt P29476): 123

Form field Ki for item `Cc1cc(N)nc(C[C@@H]2CNC[C@@H]2OCCNCC(F)(F)c2cc(F)cc(Cl)c2)c1` on Nitric oxide synthase 1 (Rattus norvegicus, UniProt P29476): 77

Form field Ki for item `Cc1cc(N)nc(C#CCN2CCC(F)(F)CC2)c1` on Nitric oxide synthase 1 (Rattus norvegicus, UniProt P29476): 1590

Form field Ki for item `Cc1cc(N)nc(CCc2cc(CN)cc(CCc3ccc4cc[nH]c4n3)c2)c1` on Nitric oxide synthase 1 (Rattus norvegicus, UniProt P29476): 220

Form field Ki for item Cc1cc(N)nc(C[C@H]2CNC[C@H]2NC[C@H](C)NCc2ccc(Cl)cc2)c1 (racemic) on Nitric oxide synthase 1 (Rattus norvegicus, UniProt P29476): 136
